system: T1, PDZD2_2, O15018
T1 sequence (O15018 329-429, limits assumed, looked up): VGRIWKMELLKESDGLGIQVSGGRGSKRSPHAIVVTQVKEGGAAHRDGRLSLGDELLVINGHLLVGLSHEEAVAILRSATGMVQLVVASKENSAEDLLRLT
protocolDescription: holdup assay
Set-up: key: below the threshold = too weak to quantify, mostly under pKd 3.1 to 4
assayContext: plain residues with an end cap or a label only (N-terminal biotin on a linker: ado-ado)

binder: DTKNYKQTSV [CRIPT, Q9P021]
pKd: 4.76

binder: TRKRSGEAAV [PFKM, P08237]
pKd: below the threshold

binder: KKMLQRRTLL [OR8G1, Q15617]
pKd: below the threshold

binder: PSHPRLQTHV [KIRREL2, Q6UWL6]
pKd: 4.23

binder: RSSGGDDFWF [KCNV1, Q6PIU1]
pKd: 4.37

binder: KRPEMTSSSV [MUC3B, MUC3A, Q02505;Q9H195]
pKd: 5.11

binder: SPDRDRESIV [SCN5A, Q14524]
pKd: 5.4

binder: PTPDLPQTRV [KLHDC7A, Q5VTJ3]
pKd: 3.75

binder: EPQYQPGENL [SRC, P12931]
pKd: below the threshold

binder: QSGLYESEEL [MYOT, Q9UBF9]
pKd: below the threshold

binder: KPGKGSETVV [FZD4, Q9ULV1]
pKd: 3.76

binder: PSVGSKKTVL [REELD1, A0A1B0GV85]
pKd: 3.52

binder: DFLSTFHIRI [CIB2, O75838]
pKd: 3.71

binder: IDESKKEWLI [CNTNAP2, Q9UHC6]
pKd: 4.54

binder: NVYGIESVKI [GRIA2, P42262]
pKd: 3.63

binder: LPAVCYDIDI [PTTG2, Q9NZH5]
pKd: 4.17

binder: ARESQKVSHV [FAM110B, Q8TC76]
pKd: 5.17

binder: LAHVKHKEQI [AQP3, Q92482]
pKd: below the threshold

binder: STKRKLASAV [NCF1, P14598]
pKd: 4.51

binder: PYPTADHMLA [JUP, P14923]
pKd: below the threshold

binder: QLSFNTDTLC [ABCA2, Q9BZC7]
pKd: below the threshold

binder: LESTTVGTSV [KARS1, Q15046]
pKd: 4.87

binder: LKDDELKTKL [SLCO1A2, P46721]
pKd: below the threshold

binder: GIKKITSTAL [RPS6KA3, P51812]
pKd: 3.57

binder: AEASVACSLC [PTGIR, P43119]
pKd: 4.29

binder: SRSVVESDEL [MYPN, Q86TC9]
pKd: below the threshold

binder: TNSRHGETTV [FZD2, Q14332]
pKd: 4.18

binder: ARSAAASNYV [CLDN4, O14493]
pKd: 4.49

binder: NIAESLESLV [PTPRZ1, P23471]
pKd: 5.37

binder: NISYRRESAI [KCNJ4, P48050]
pKd: 4.36

binder: EKCGKEFSEF [PRKACA, P17612]
pKd: 3.68

binder: PYSESDDDWC [CACNA1A, O00555]
pKd: 5.3

binder: APIAGFSSFV [SDK2, Q58EX2]
pKd: 5.54
